system: HCV replicon with a D168E mutation in a 1a-H77 background; assay: transient replicon assay, D168E mutation in 1a-H77 background; type: cell-based, hepatitis C virus (genotype 1a-H77); settings: Hepatitis C virus, read-out: EC50 in a transient replicon assay with a D168E mutation in a 1a-H77 background
EC50 for assorted compounds

| given-smiles | EC50 |
| --- | --- |
| Cc1cc(C(=O)N[C@H]2CCCCC/C=C\[C@@H]3C[C@@]3(C(=O)NS(=O)(=O)C3CC3)NC(=O)[C@@H]3C[C@@H](Oc4nc5cc(F)ccc5nc4C)CN3C2=O)no1 | 0.003 to 0.02 µM |
| Cc1cc(C(=O)N[C@H]2CCCCC/C=C\[C@@H]3C[C@@]3(C(=O)NS(=O)(=O)C3CC3)NC(=O)[C@@H]3C[C@@H](Oc4nc5ccccc5nc4C(F)(F)F)CN3C2=O)[nH]n1 | > 0.1 µM |
| Cc1onc(C(=O)N[C@H]2CCCCC/C=C\[C@@H]3C[C@@]3(C(=O)NS(=O)(=O)C3CC3)NC(=O)[C@@H]3C[C@@H](Oc4nc5ccccc5nc4C(F)(F)F)CN3C2=O)c1C | < 0.003 µM |
| Cc1nc2c(Br)cc(F)cc2nc1O[C@@H]1C[C@H]2C(=O)N[C@]3(C(=O)NS(=O)(=O)C4(C)CC4)C[C@H]3/C=C\CCCCC[C@H](NC(=O)c3ccon3)C(=O)N2C1 | 0.003 to 0.02 µM |

Values compiled from patent US9493506B2.
